The measurements presented in this section are drawn from patent US20140039042.

target: CD16α (FcγRIIIa) V158 allotype, CD16α-6His (UniProt P08637 P08637:17-208); test: filter; 45±28 nM, n=10, dot blot; conditions: tags: 6His
Sequence (P08637 17-208, one chain of several): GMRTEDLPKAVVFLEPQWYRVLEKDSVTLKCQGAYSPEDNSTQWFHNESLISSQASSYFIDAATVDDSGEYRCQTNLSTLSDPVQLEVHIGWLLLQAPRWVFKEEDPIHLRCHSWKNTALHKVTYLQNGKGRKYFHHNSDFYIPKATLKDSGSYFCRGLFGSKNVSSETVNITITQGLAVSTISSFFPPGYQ
endpoint-label: pKd
Answers are plain numbers, as −log10 of the molar value.

stdin: Value lookup for pKd; key = CLN0020 (ssDNA) DNA: GGAGGGAAAAGTTATCAGGCCACTGCGGGGGTCTATACGTGAGGAAGAAGTGGGCAGGTCGATTAGTTTTGGAGTACTCGCTCC
stdout: 7.35
